- tested on: Rabbit skeletal myosin
- measurement description: Skeletal muscle myosin II actin-activated ATPase assay
- stated conditions: 20 nM skeletal muscle myosin II; read-out: SKMMII KI
pKi: −log10 of the molar value.
Please enter fulfilled where pKi is greater than or equal to 6, and not fulfilled where it is lower.

Solved entries:
{"columns": ["compound", "assigned category"],
 "data": [
  ["Cc1cc2c(cc1F)C(=O)[C@]1(O)CCN(c3cccs3)C1=N2", "not fulfilled"],
  ["Cc1ccc2c(c1)C(=O)[C@]1(O)CCN(c3cccc(Cl)c3)C1=N2", "not fulfilled"],
  ["O=C1c2cc(C(F)(F)F)ccc2N=C2N(c3ccccc3)CC[C@@]12O", "not fulfilled"],
  ["Cc1ccc2c(c1)C(=O)[C@]1(O)CCN(c3cccc(Br)c3)C1=N2", "not fulfilled"]
]}

**Query** Determine whether this compound has pKi no lower than 6: Cc1sc2c(c1C)C(=O)[C@]1(O)CCN(c3ccc(Cl)cc3)C1=N2
**Result** fulfilled

**Query** Determine whether this compound has pKi no lower than 6: Cc1ccc2c(c1)C(=O)[C@]1(O)CCN(c3ccccc3)C1=N2 [Blebbistatin, reference compound]
**Result** fulfilled
